tested on: RAW-Dual (murine macrophage reporter line); experiment: IRF reporter (Lucia luciferase) activity fold change vs agonist alone; higher = enhanced IRF activity; conditions: modulator concentration 10 µM; agonist: MPLA […]
PROPERTY_MEASURED: IRF reporter
Output: the number by itself.

IN: Param item = `Br.O=S(=O)(c1ccc(-c2csc(Nc3ccc(Cl)cc3)n2)cc1)N1CCOCC1` ; retrieve measured IRF reporter.
OUT: 1.06

IN: Cool, now COC(=O)C1=CN(CC2CCCO2)C=C(C(=O)OC)C1c1ccccc1Cl (stereo unspecified)
OUT: 0.686

IN: Same thing, different compound: O=C(NC1CC2CCC1C2)c1ccccc1 (stereo unspecified)
OUT: 0.869

IN: Then `Cc1oncc1CNC(=O)c1ccc(C(C)(C)C)cc1` ?
OUT: 1.02

IN: CC(CS)C(=O)N1CCCC1C(=O)O (stereo unspecified) , same question.
OUT: 1.33

IN: Record: `NC12CC3CC(CC(C3)C1)C2`
OUT: 1.06

All values here come from the supplement of paper PMC10646978.
